target: Gal(b1-3)GalNAc(a1-3)[Fuc(a1-2)]Gal(b1-4)Glc; experiment: glycan array binding signal (z-score within array); higher = stronger binding; details: glycan notation: IUPAC condensed, linker removed
This is one part of a sample in which the strongest signals are shown more often than they occur.
Readings of glycan array binding signal (z-score) for the listed binders

Answered examples (3):
MpAFP NterminalRI GFP (Marinomonas primoryensis) (protein) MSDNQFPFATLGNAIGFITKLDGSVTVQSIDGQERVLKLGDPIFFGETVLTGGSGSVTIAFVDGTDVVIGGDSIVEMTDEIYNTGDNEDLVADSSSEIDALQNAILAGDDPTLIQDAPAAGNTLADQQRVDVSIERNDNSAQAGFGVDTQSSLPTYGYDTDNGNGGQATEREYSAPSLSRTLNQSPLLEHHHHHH    -0.422
Tectonin 2 (Laccaria bicolor) (protein) MPWKGISGSLSRISAGSVTNVWGVNAANNIYRYTGDDAKPWVQIPGALTDIGAAADGTVWGVNAAGNIYRYVWDSNHWTQIKGALKRISAGSRTNVWGVNAGGAIYRYTGDDANPWVQIPGVLSDIGAGADGTVWGVNAAGEIYRYTGDQGDPNHWVKIPGALSAISAGIKTNVWGVNSANNIYTSTGDDKNPWLGIGGSLVDIGAGTDGVVWGVNAGGGIYRWIRD    -0.46
EUL D1A first (Oryza sativa) (protein) MFGFGHHHNQAPAAPSDPNQIFKIFCRANENYCLTVRDSAVVLAPVNPKDEHQHWFKDMRFSTKVKDGEGMPAFALVNKATGLAVKHSLGQSHPVKLVPFNPEYEDASVLWTESKDVGKGFRCIRMVNNTRLNLDAFHGDKDHGGVRDGTTVVLWEWCKGDNQSWKILPWGPEAHSSSPGAATILEQKLISEEDLNSAVDHHHHHH    -1.67

Problem: Entry under review: Gal 9 (Canis lupus) (protein) MAFSSSQPPYLSPGVPFSGKIQGGLQDGLKITINGTILYCNGTRFAVNFHSGHSDSDIAFHFNPRFEEGGYVVCNTKQKGSWGSEERKMQMPFQMGNPFELCFMVNSCDFKVTVNGSHFTQYSHRVPFHYVDTLSITGAVQLSYISFQSPGVWQSSSAPITQTVIHTVQTTPGQPFPNPIIPPTAYPTPTYPMPFFTSIPGGLYPSKSIIVSGTVLPGAKRFHINLRSGNDIAFHLNPRFNENTVVRNMQINNSWGSEERSLPRKMPFVQGQSFSVWIMCEGHCFKVAVDGEHLFEYYHRLKNLLAINNMEVAGDVQLTHVQT . Reported glycan array binding signal (z-score)?
Solution: 3.45

Problem: Entry under review: GS13455A-bfa-343-25-343 (Bacteroides fragilis) (protein) KDEIQIVDQDTSWQMDNKYIEEDIREQLGIDPFTDLVYLGYYGNPYTQLEAINDLVNTTLVGKNELSFKVKVTKPYKEDIKVNLMKEDKLVTDFPEMAEGIPLFPSENCTFEGGVLKAGELETTVKLTLKDVEKLNNLSGYVMAIKLTMEGSHEHLAIARTRSSYFVKLNLSIRLDNIDSSNKKIEGKGFNKEISFKSDIRPDKLGSLNDGNFTANNWYTSNANNYLTIILPEKQSLKGFRLDTNTSPSGSYMLKSCRVMVETPDGNWVNHGVFDRKSMDGIAYISFKKPVECTKVRFENMMAFNGRFSVDVNEVTAFR . Reported glycan array binding signal (z-score)?
Solution: -0.504
